Taken from ChEMBL document CHEMBL5325486.

Documented log10(MIC90) across a set of compounds
# System: Neisseria gonorrhoeae
# assay_text: Antibacterial activity against resistant Neisseria gonorrhoeae assessed inhibition of bacterial growth
# Type: functional
test_readout: log10(MIC90) (log10 of the value in µg/mL)

compound: CO[C@@H]1[C@@H](OC(=O)c2ccc(C)[nH]2)[C@@H](O)[C@H](Oc2ccc3c(O)c(NC(=O)c4cn(C)c(CCC(C)C)n4)c(=O)oc3c2C)OC1(C)C
target: Neisseria gonorrhoeae
test_readout: log10(MIC90)
result: 0.00
//
compound: CO[C@@H]1[C@@H](OC(=O)c2[nH]c(C)cc2C)[C@@H](O)[C@H](Oc2ccc3c(O)c(NC(=O)c4ccc(O)c(CC=C(C)C)c4)c(=O)oc3c2C)OC1(C)C
target: Neisseria gonorrhoeae
test_readout: log10(MIC90)
result: -0.60
//
compound: CC[C@H]1OC(=O)[C@H](C)[C@@H](O[C@H]2C[C@@](C)(OC)[C@@H](O)[C@H](C)O2)[C@H](C)[C@@H](O[C@@H]2O[C@H](C)C[C@H](N(C)C)[C@H]2O)[C@](C)(O)C[C@@H](C)CN(C)[C@H](C)[C@@H](O)[C@]1(C)O [AZITHROMYCIN]
target: Neisseria gonorrhoeae
test_readout: log10(MIC90)
result: 0.90
//
compound: CO[C@@H]1[C@@H](OC(=O)c2ccc(C)[nH]2)[C@@H](O)[C@H](Oc2ccc3c(O)c(NC(=O)c4cscn4)c(=O)oc3c2C)OC1(C)C
target: Neisseria gonorrhoeae
test_readout: log10(MIC90)
result: -0.30
//
compound: CO[C@@H]1[C@@H](OC(=O)c2ccc(C)[nH]2)[C@@H](O)[C@H](Oc2ccc3c(O)c(NC(=O)c4ccncc4)c(=O)oc3c2C)OC1(C)C
target: Neisseria gonorrhoeae
test_readout: log10(MIC90)
result: 0.00
//
compound: CO[C@@H]1[C@@H](OC(=O)c2ccc(C)[nH]2)[C@@H](O)[C@H](Oc2ccc3c(O)c(NC(=O)c4ccnc(C)c4)c(=O)oc3c2C)OC1(C)C
target: Neisseria gonorrhoeae
test_readout: log10(MIC90)
result: -0.30
//
compound: CO[C@@H]1[C@@H](OC(=O)NOCC(C)C)[C@@H](O)[C@H](Oc2ccc3c(O)c(NC(=O)c4ccc(O)c(CC=C(C)C)c4)c(=O)oc3c2C)OC1(C)C
target: Neisseria gonorrhoeae
test_readout: log10(MIC90)
result: 1.20
//
compound: C#CCONC(=O)O[C@H]1[C@@H](O)[C@H](Oc2ccc3c(O)c(NC(=O)c4ccc(O)c(CC=C(C)C)c4)c(=O)oc3c2C)OC(C)(C)[C@@H]1OC
target: Neisseria gonorrhoeae
test_readout: log10(MIC90)
result: -0.30
//
compound: CO[C@@H]1[C@@H](OC(=O)c2ccc[nH]2)[C@@H](O)[C@H](Oc2ccc3c(O)c(NC(=O)c4ccc(O)c(CC=C(C)C)c4)c(=O)oc3c2C)OC1(C)C
target: Neisseria gonorrhoeae
test_readout: log10(MIC90)
result: 0.00
//
compound: C=Cc1cc(C(=O)Nc2c(O)c3ccc(O[C@@H]4OC(C)(C)[C@H](OC)[C@@H](OC(=O)c5ccc(C)[nH]5)[C@H]4O)c(C)c3oc2=O)ccc1N
target: Neisseria gonorrhoeae
test_readout: log10(MIC90)
result: -0.30
